Each recorded value in this set is attributed to patent US9340577B2.

- SYSTEM NAME: DRB1*1101 (Homo sapiens, UniProt P01903+P01911, A100R/A169T/A87E/I96F/K41T/L162R/M171V/P40S/Q125H/Q178H/Q39Y/Q99D/R42S/S66Y/T262R/V115G/W38E)
- Sequence (P01903 26-254 limits assumed, other chains not shown): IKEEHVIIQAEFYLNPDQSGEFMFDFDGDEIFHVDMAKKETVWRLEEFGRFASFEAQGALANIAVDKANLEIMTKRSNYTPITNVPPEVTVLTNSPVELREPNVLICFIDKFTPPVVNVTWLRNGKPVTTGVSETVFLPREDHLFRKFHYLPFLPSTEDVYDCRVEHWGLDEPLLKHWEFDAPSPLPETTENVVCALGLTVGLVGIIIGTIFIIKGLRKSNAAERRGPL
- ASSAY INFO: biochemical
- TEST SETTINGS: Binding affinity DRB1 *1101
pIC50: −log10 of the molar value.
List of pIC50 values.

For orientation, consider the following solved cases.
MOLECULE: CSCC[C@H](NC(=O)[C@H](CC(=O)O)NC(=O)[C@H](Cc1ccc(O)cc1)NC(=O)[C@H](CC(C)C)NC(=O)[C@@H]1CCCN1C(=O)[C@H](Cc1c[nH]cn1)NC(=O)[C@@H]1CCCN1)C(=O)N[C@@H](CO)C(=O)N[C@@H](CC(C)C)C(=O)N[C@@H](CC(C)C)C(=O)N[C@@H](CCCCN)C(=O)N[C@@H](CC(N)=O)C(=O)N[C@@H](CCCNC(=N)N)C(=O)N[C@@H](Cc1ccccc1)C(=O)N[C@@H](CC(C)C)C(=O)O [Peptide 68.0071]
pIC50: < 4.70
--
MOLECULE: CC(C)C[C@H](NC(=O)[C@H](CC(C)C)NC(=O)[C@@H]1CCCN1C(=O)[C@@H](N)CC(N)=O)C(=O)NCC(=O)N[C@@H](C)C(=O)N[C@@H](C)C(=O)N[C@H](C(=O)N1CCC[C@H]1C(=O)N[C@H](C(=O)NCC(=O)N[C@@H](CC(N)=O)C(=O)N[C@@H](CC(N)=O)C(=O)N[C@@H](CCCCN)C(=O)N[C@@H](CCCNC(=N)N)C(=O)O)[C@@H](C)O)[C@@H](C)O [Peptide 89.0165]
pIC50: < 4.70
--
MOLECULE: CC[C@H](C)[C@H](NC(=O)[C@@H](NC(=O)[C@@H]1CCCN1C(=O)[C@@H](NC(=O)[C@@H](NC(=O)[C@H](CC(N)=O)NC(=O)CNC(=O)[C@H](CO)NC(=O)[C@H](CS)NC(=O)[C@@H](NC(=O)[C@H](CCCCN)NC(=O)[C@@H](N)CCCNC(=N)N)C(C)C)[C@@H](C)O)[C@@H](C)O)[C@@H](C)CC)C(=O)N[C@@H](Cc1c[nH]cn1)C(=O)N[C@@H](CC(C)C)C(=O)N[C@@H](CCCCN)C(=O)O [Peptide 1601.43]
pIC50: < 4.70

Task item: Look up pIC50 for this molecule: CC[C@H](C)[C@H](NC(=O)CNC(=O)[C@@H](NC(=O)[C@H](CCCCN)NC(=O)[C@H](Cc1ccc(O)cc1)NC(=O)[C@H](Cc1c[nH]c2ccccc12)NC(=O)[C@H](Cc1ccc(O)cc1)NC(=O)[C@@H](N)CC(C)C)[C@@H](C)O)C(=O)N[C@@H](CO)C(=O)N[C@@H](CC(N)=O)C(=O)N[C@H](C(=O)N[C@@H](CO)C(=O)N[C@@H](CCC(=O)O)C(=O)N[C@H](C(=O)N[C@@H](Cc1ccc(O)cc1)C(=O)O)C(C)C)[C@@H](C)CC [Peptide 89.0009]
Reply: 5.20

Task item: GET /values?readout=pIC50&item= CC[C@H](C)[C@H](NC(=O)[C@@H]1CCCN1C(=O)[C@H](Cc1c[nH]cn1)NC(=O)[C@@H](NC(=O)[C@@H]1CCCN1C(=O)[C@@H](NC(=O)[C@H](CO)NC(=O)[C@@H]1CCCN1C(=O)[C@H](CC(C)C)NC(=O)CNC(=O)[C@@H](NC(=O)[C@H](C)NC(=O)[C@H](CCC(=O)O)NC(=O)[C@H](C)N)C(C)C)[C@@H](C)CC)C(C)C)C(=O)NCC(=O)O [Peptide 68.0101]
Reply: < 4.70

###

- SYSTEM NAME: DRB1*0802 (Homo sapiens, UniProt P01903+P01911, A100R/A103L/A169T/F76Y/H45Y/I96F/K41T/L162R/M171V/P40S/Q125H/Q178H/Q39Y/Q99D/R218S/R42G/S66Y/V115G/W38E)
- ASSAY INFO: biochemical
- Format: binding
Each item that follows carries a reported IC50.

MOLECULE: CC[C@H](C)[C@H](NC(=O)[C@H](CCC(N)=O)NC(=O)[C@@H](NC(=O)[C@H](CO)NC(=O)[C@H](CC(=O)O)NC(=O)[C@@H]1CCCN1C(=O)[C@@H](NC(=O)[C@H](C)NC(=O)[C@@H](NC(=O)[C@@H](NC(=O)[C@H](CC(N)=O)NC(=O)[C@H](CC(C)C)NC(=O)[C@@H](N)Cc1ccccc1)[C@@H](C)O)C(C)C)[C@@H](C)CC)C(C)C)C(=O)N[C@@H](CC(C)C)C(=O)N[C@H](C(=O)O)C(C)C [Peptide 1601.20]
RESULT VALUE: > 20 µM

Now take the following molecule into account.
Task item: Reported IC50 for CC(C)[C@H](NC(=O)[C@H](CCC(=O)O)NC(=O)[C@H](Cc1c[nH]c2ccccc12)NC(=O)[C@@H](NC(=O)CNC(=O)[C@@H](NC(=O)[C@H](CC(N)=O)NC(=O)CNC(=O)[C@H](Cc1ccc(O)cc1)NC(=O)[C@H](CCCCN)NC(=O)[C@@H](N)CCC(=O)O)[C@@H](C)O)[C@@H](C)O)C(=O)N[C@@H](Cc1c[nH]cn1)C(=O)N[C@@H](Cc1ccccc1)C(=O)NCC(=O)N[C@@H](CC(N)=O)C(=O)O [Peptide 1601.11] : what is it?
Reply: > 20 µM

###

- SYSTEM NAME: DRB3*0101 (Homo sapiens, UniProt P01903+P79483)
- ASSAY INFO: biochemical
- Type: binding
RECORDED METRIC: IC50

Consider the reported IC50 for these molecules:
MOLECULE: CC[C@H](C)[C@H](NC(=O)[C@@H](NC(=O)[C@@H]1CCCN1C(=O)[C@@H](NC(=O)[C@@H](NC(=O)[C@H](CC(N)=O)NC(=O)CNC(=O)[C@H](CO)NC(=O)[C@H](CS)NC(=O)[C@H](CC(C)C)NC(=O)[C@H](CCCCN)NC(=O)[C@H](CCCNC(=N)N)NC(=O)[C@H](CCCNC(=N)N)NC(=O)[C@@H](N)CCCCN)[C@@H](C)O)[C@@H](C)O)[C@@H](C)CC)C(=O)N[C@@H](Cc1c[nH]cn1)C(=O)O [Peptide 1601.16]
SYSTEM NAME: DRB3*0101 (Homo sapiens, UniProt P01903+P79483)
IC50: > 20 µM

MOLECULE: CC[C@H](C)[C@H](NC(=O)CNC(=O)[C@H](Cc1ccc(O)cc1)NC(=O)[C@H](CC(C)C)NC(=O)[C@H](CO)NC(=O)[C@H](CC(C)C)NC(=O)[C@H](CC(C)C)NC(=O)[C@H](CO)NC(=O)[C@H](CC(C)C)NC(=O)[C@H](CCC(=O)O)NC(=O)[C@H](CO)NC(=O)[C@@H](N)CC(C)C)C(=O)N[C@@H](Cc1c[nH]cn1)C(=O)N[C@@H](CCCCN)C(=O)N[C@@H](CCC(N)=O)C(=O)O [Peptide 68.0044]
SYSTEM NAME: DRB3*0101 (Homo sapiens, UniProt P01903+P79483)
IC50: > 20 µM

MOLECULE: CC[C@H](C)[C@H](NC(=O)[C@@H]1CCCN1C(=O)[C@H](Cc1c[nH]cn1)NC(=O)[C@@H](NC(=O)[C@@H]1CCCN1C(=O)[C@@H](NC(=O)[C@H](CO)NC(=O)[C@@H]1CCCN1C(=O)[C@H](CC(C)C)NC(=O)CNC(=O)[C@@H](NC(=O)[C@H](C)NC(=O)[C@H](CCC(=O)O)NC(=O)[C@H](C)N)C(C)C)[C@@H](C)CC)C(C)C)C(=O)NCC(=O)O [Peptide 68.0101]
SYSTEM NAME: DRB3*0101 (Homo sapiens, UniProt P01903+P79483)
IC50: > 20 µM

MOLECULE: CSCC[C@H](NC(=O)CNC(=O)[C@H](CC(C)C)NC(=O)[C@H](CCC(N)=O)NC(=O)[C@@H](NC(=O)[C@H](CC(C)C)NC(=O)[C@H](CCC(N)=O)NC(=O)CNC(=O)[C@@H](N)Cc1ccccc1)[C@@H](C)O)C(=O)N[C@@H](CCC(=O)O)C(=O)N[C@@H](CCC(N)=O)C(=O)N[C@@H](Cc1c[nH]cn1)C(=O)N[C@@H](Cc1ccc(O)cc1)C(=O)N[C@@H](CCC(=O)O)C(=O)N[C@@H](CC(C)C)C(=O)O [Peptide 68.0028]
SYSTEM NAME: DRB3*0101 (Homo sapiens, UniProt P01903+P79483)
IC50: > 20 µM

MOLECULE: CC[C@H](C)[C@H](NC(=O)[C@H](C)NC(=O)[C@@H](NC(=O)[C@@H](NC(=O)[C@H](CC(N)=O)NC(=O)[C@H](CC(C)C)NC(=O)[C@H](Cc1ccccc1)NC(=O)[C@H](CCCCN)NC(=O)[C@@H](NC(=O)[C@H](CCCNC(=N)N)NC(=O)[C@H](CCC(N)=O)NC(=O)[C@H](CCCCN)NC(=O)[C@@H](N)CCC(=O)O)[C@@H](C)O)[C@@H](C)O)C(C)C)C(=O)N1CCC[C@H]1C(=O)N[C@@H](CC(=O)O)C(=O)O [Peptide 1601.19]
SYSTEM NAME: DRB3*0101 (Homo sapiens, UniProt P01903+P79483)
IC50: > 20 µM

MOLECULE: CC[C@H](C)[C@H](N)C(=O)N[C@@H](Cc1ccc(O)cc1)C(=O)N[C@@H](CO)C(=O)N[C@H](C(=O)N[C@@H](CO)C(=O)N[C@@H](CCSC)C(=O)N[C@@H](CCCCN)C(=O)N[C@@H](Cc1c[nH]cn1)C(=O)N1CCC[C@H]1C(=O)N[C@@H](CCC(N)=O)C(=O)N[C@@H](CCC(=O)O)C(=O)N[C@@H](CCSC)C(=O)N[C@@H](CCCCN)C(=O)N[C@H](C(=O)N[C@@H](Cc1ccc(O)cc1)C(=O)O)[C@@H](C)O)[C@@H](C)CC [Peptide 68.0126]
SYSTEM NAME: DRB3*0101 (Homo sapiens, UniProt P01903+P79483)
IC50: > 20 µM

MOLECULE: CC[C@H](C)[C@H](NC(=O)[C@@H](NC(=O)[C@@H]1CCCN1C(=O)CN)C(C)C)C(=O)N1CCC[C@H]1C(=O)N[C@@H](CCC(N)=O)C(=O)N[C@@H](CC(=O)O)C(=O)N[C@@H](Cc1c[nH]c2ccccc12)C(=O)N[C@@H](CO)C(=O)N[C@H](C(=O)N[C@@H](CCC(=O)O)C(=O)N[C@@H](CS)C(=O)N[C@@H](CCSC)C(=O)N[C@H](C(=O)N[C@H](C(=O)O)[C@@H](C)O)[C@@H](C)O)[C@@H](C)O [Peptide 68.0156]
SYSTEM NAME: DRB3*0101 (Homo sapiens, UniProt P01903+P79483)
IC50: > 20 µM

MOLECULE: CC(C)C[C@H](NC(=O)[C@@H](NC(=O)[C@H](CCC(N)=O)NC(=O)[C@H](Cc1c[nH]c2ccccc12)NC(=O)[C@@H]1CCCN1C(=O)[C@H](CCC(N)=O)NC(=O)[C@@H](N)CO)C(C)C)C(=O)N[C@H](C(=O)N[C@@H](C)C(=O)N[C@@H](CO)C(=O)N[C@@H](CCCNC(=N)N)C(=O)NCC(=O)N[C@@H](CCCNC(=N)N)C(=O)N[C@@H](C)C(=O)N[C@H](C(=O)O)C(C)C)C(C)C [Peptide 68.0061]
SYSTEM NAME: DRB3*0101 (Homo sapiens, UniProt P01903+P79483)
IC50: > 20 µM

# evaluate next
Task item: Please give the measured IC50 for this molecule: CSCC[C@H](NC(=O)CNC(=O)CNC(=O)[C@H](CCCNC(=N)N)NC(=O)[C@@H](NC(=O)[C@H](CCC(N)=O)NC(=O)[C@H](C)NC(=O)[C@@H](NC(=O)[C@@H](NC(=O)[C@H](CC(C)C)NC(=O)[C@H](Cc1c[nH]cn1)NC(=O)[C@H](Cc1ccc(O)cc1)NC(=O)[C@@H](N)CCCCN)[C@@H](C)O)C(C)C)C(C)C)C(=O)N[C@H](C(=O)N[C@@H](Cc1ccccc1)C(=O)O)C(C)C [Peptide 68.0120]
Reply: > 20 µM
